- test: in vivo
- measurement parameters: NRG (NOD-Rag1null IL2rgnull), mouse, in vivo, po
property: MTD at 5 d
Please give the number followed by its unit.

Incoming: Please report the recorded MTD at 5 d for C[C@H]1[C@H](OC(=O)CCC(=O)O)O[C@@H]2O[C@@]3(C)CC[C@H]4[C@H](C)CC[C@@H]1[C@@]24OO3 [AS, artesunate] .
Outgoing: 200 mg/kg/day
